Reference source for all entries: patent US20090221624A1

I'd appreciate it if you could supply EC50 values for the items below.
tested on: DNG (D2-hRuPac cells); assay: DNG antiviral activity, D2-hRuPac cells, Renilla luciferase; type: cell-based, Dengue fever virus; details: Dengue virus, secondary screening
Could you give me the number in µM? Just the number is fine.

Q. For CCOc1ccc2nc(C)cc(Nc3ccc(N(C)C)cc3)c2c1 , write its EC50.
A. 6.28

Q. For COc1ccc2nc(C)cc(Nc3ccc(OCc4ccccc4Cl)cc3)c2c1 , write its EC50.
A. 1.65

Q. For C=CCNc1c2c(nc3ccccc13)CCC2 , write its EC50.
A. 69.2

Q. For COC(=O)c1ccc2nc(C)cc(Nc3cccc(O)c3)c2c1 , write its EC50.
A. 16.8

Q. For Cc1cc(Nc2cccc(C(F)(F)F)c2)c2cc(Cl)ccc2n1 , write its EC50.
A. 40.6

Q. For CC(=O)c1cccc(Nc2cc(C)nc3c(C)cc(C)cc23)c1 , write its EC50.
A. 10.5

Q. For Cc1cc(C)c2nc(C)cc(Nc3ccc(OCc4ccccc4)cc3)c2c1 , write its EC50.
A. 3.39

----------
test: in vitro; conditions: RSV CC50
I'd appreciate it if you could supply CC50 values for the items below.
Could you give me the number in µM? Just the number is fine.

Q. For CCOC(=O)c1cnc2ccc(OCC)cc2c1NCc1ccco1 , write its CC50.
A. 47.3

Q. For Cc1ccc(Nc2c3c(nc4ccc(C)cc24)CCC3)cc1 , write its CC50.
A. 43.8

Q. For COc1cccc2c(Nc3ccc4c(c3)OCCO4)cc(C)nc12 , write its CC50.
A. 57.2

----------
test system: DNG (D2-hRuPac cells); test: DNG antiviral activity, D2-hRuPac cells, Renilla luciferase; assay type: cell-based, Dengue fever virus; settings: Dengue virus, secondary screening
Property: log10 EC50 (log10 of the value in µM)
Please note: log10 values; quantity EC50; unit µM.

Q. For CCOC(=O)c1cnc2ccc(C)cc2c1NCc1ccco1 , write its log10 EC50.
A. 0.85

Q. For Cc1cc(C)c2nc(C)cc(NCc3ccco3)c2c1 , write its log10 EC50.
A. 1.34

Q. For c1cncc(CNc2c3ccccc3nc3ccccc23)c1 , write its log10 EC50.
A. 0.56

Q. For Cc1cc(NNC(=O)OCc2ccccc2)c2ccccc2n1 , write its log10 EC50.
A. 1.76

Q. For Cc1ccc2nc3c(c(Nc4ccccc4)c2c1)CCC3 , write its log10 EC50.
A. 1.58

Q. For CCc1ccccc1Nc1cc(C)nc2c(OC)cccc12 , write its log10 EC50.
A. 1.44

Q. For CCOC(=O)c1cnc2c(Cl)cc(Cl)cc2c1NCc1ccco1 , write its log10 EC50.
A. 1.20

Q. For CCOc1ccc2nc(C)cc(Nc3ccc(OC)c(OC)c3)c2c1 , write its log10 EC50.
A. 0.93

Q. For Cc1ccc2nc(C)cc(NCc3ccccc3)c2c1 , write its log10 EC50.
A. 1.50

Q. For COc1cccc2c(Nc3ccc4c(c3)OCCO4)cc(C)nc12 , write its log10 EC50.
A. 1.55

Q. For COc1ccc(Nc2cc(C)nc3ccccc23)cc1 , write its log10 EC50.
A. 1.62

Q. For CCOC(=O)c1ccc2nc(C)cc(Nc3ccc(C)cc3C)c2c1 , write its log10 EC50.
A. 1.79

Q. For COc1ccc(Nc2cc(C)nc3c2ccc2ccccc23)cc1 , write its log10 EC50.
A. 1.23

Q. For CCOC(=O)c1cnc2ccc(F)cc2c1NCCCN(C)C , write its log10 EC50.
A. 1.71

Q. For c1ccc2cc(Nc3c4ccccc4nc4ccccc34)ccc2c1 , write its log10 EC50.
A. 0.86

Q. For CCOc1ccc2nc(C)cc(Nc3ccc(C)c(Cl)c3)c2c1 , write its log10 EC50.
A. 0.70

Q. For CCOC(=O)c1cnc2c(C)cc(C)cc2c1NCCCN(C)C , write its log10 EC50.
A. 0.78

Q. For CCOC(=O)c1ccc(Nc2cc(C)nc3c2ccc2ccccc23)cc1 , write its log10 EC50.
A. 1.51

Q. For CCOC(=O)c1cnc2c(OC)cccc2c1NC(C)c1ccccc1 (stereo not drawn) , write its log10 EC50.
A. 1.57

Q. For CCOC(=O)c1cnc2ccc(OC)cc2c1NCc1ccco1 , write its log10 EC50.
A. 0.87

Q. For CCOC(=O)c1cnc2ccc(F)cc2c1Nc1ccc(S(=O)(=O)Nc2nc(C)cc(C)n2)cc1 , write its log10 EC50.
A. 0.61

Q. For Cc1ccc2nc3c(c(Nc4ccc(O)cc4)c2c1)CCC3 , write its log10 EC50.
A. 0.97

Q. For COC(=O)c1ccc(Nc2c3c(nc4ccccc24)CCC3)cc1 , write its log10 EC50.
A. 1.79

Q. For CCCOC(=O)c1ccc(Nc2cc(C)nc3ccc(C(=O)OCC)cc23)cc1 , write its log10 EC50.
A. 1.65

Q. For Cc1ccc2nc3c(c(Nc4ccc(N5CCOCC5)cc4)c2c1)CCC3 , write its log10 EC50.
A. 1.31

Q. For Cc1ccc2nc3c(c(Nc4cccc(C(F)(F)F)c4)c2c1)CCC3 , write its log10 EC50.
A. 1.68

Q. For Cc1ccc2nc(C)cc(NCc3ccco3)c2c1 , write its log10 EC50.
A. 1.41

Q. For CCOc1ccc2nc(C)cc(Nc3cc(Cl)ccc3OC)c2c1 , write its log10 EC50.
A. 0.84

Q. For CCOC(=O)c1ccc2ncc(C(=O)OCC)c(NCCCOC(=O)C(Cl)(Cl)Cl)c2c1 , write its log10 EC50.
A. 0.62

Q. For CCOC(=O)c1cnc2c(C(F)(F)F)cccc2c1Nc1ccc(S(=O)(=O)Nc2nc(C)cc(C)n2)cc1 , write its log10 EC50.
A. 1.08

Q. For CCOC(=O)c1cnc2ccccc2c1NCc1ccco1 , write its log10 EC50.
A. 1.08

Q. For Cc1ccc2nc(C)cc(Nc3ccccc3)c2c1 , write its log10 EC50.
A. 1.53

Q. For CCOC(=O)c1cnc2c(C)cc(C)cc2c1NCc1ccco1 , write its log10 EC50.
A. 1.05

Q. For COC(=O)c1ccc(Nc2cc(C)nc3ccc(Cl)cc23)cc1 , write its log10 EC50.
A. 1.18

Q. For COC(=O)c1ccc(Nc2cc(C)nc3cc(Cl)ccc23)cc1 , write its log10 EC50.
A. 1.73

Q. For CCOC(=O)c1cnc2c(ccc3ccccc32)c1NCc1ccco1 , write its log10 EC50.
A. 1.41

----------
Property: CC50 (µM)
Could you give me the number in µM? Just the number is fine.

Q. State recorded CC50 with viable cells (intracellular ATP), entry COc1ccccc1Nc1cc(C)nc2c(C)c(C)cc(N)c12 [Compound 79] , no comment.
A. 51.2

----------
test system: EBOV minigenome; assay: microbe, parasite or virus in culture; type: cell-based, Ebola virus; conditions: Zaire ebolavirus, 24 h, read-out: EBOV Inh
I'd appreciate it if you could supply inhibition at 25 µM values for the items below.
Could you give me the number in %? Just the number is fine.

Q. For Cc1cc(C)c2nc(C)cc(Nc3ccc(Cl)c(Cl)c3)c2c1 [Compound 53] , write its inhibition at 25 µM.
A. 75.6

Q. For CCOc1ccc2nc(C)cc(Nc3ccc(C)c(Cl)c3)c2c1 [Compound 45] , write its inhibition at 25 µM.
A. 96.2

Q. For CCOC(=O)c1ccc(Nc2cc(C)nc3c2ccc2ccccc23)cc1 [Compound 4] , write its inhibition at 25 µM.
A. 6.57

Q. For CCOc1ccc2nc(C)cc(Nc3cc(Cl)ccc3OC)c2c1 [Compound 58] , write its inhibition at 25 µM.
A. 80.2

----------
test system: EBOV minigenome; test: microbe, parasite or virus in culture; format: cell-based, Ebola virus; conditions: Zaire ebolavirus, read-out: EBOV EC50
Property: pEC50
Please report pEC50 as the negative decimal logarithm of the molar concentration, giving only the number.

Q. For CCOC(=O)c1cnc2ccc(OCC)cc2c1NCc1ccco1 , write its pEC50.
A. 4.12

Q. For CCOC(=O)c1cnc2ccc(F)cc2c1NCCCN(C)C , write its pEC50.
A. 4.85

Q. For COc1ccc2nc(C)cc(Nc3ccc(OCc4ccccc4Cl)cc3)c2c1 , write its pEC50.
A. 4.12

Q. For CCOC(=O)c1cnc2ccc(C)cc2c1NCc1ccco1 , write its pEC50.
A. 5.14

Q. For CCOC(=O)c1ccc(Nc2cc(C)nc3c2ccc2ccccc23)cc1 , write its pEC50.
A. 4.23

Q. For CCOc1ccc2nc(C)cc(Nc3ccc(Cl)cc3)c2c1 , write its pEC50.
A. 5.49

Q. For Cc1cc(Nc2ccc(C)c(C)c2)c2cc(Cl)ccc2n1 , write its pEC50.
A. 4.12

Q. For Cc1cc(C)c2nc(C)cc(Nc3ccc(O)cc3)c2c1 , write its pEC50.
A. 5.16

Q. For Cc1ccc2nc(C)cc(NCc3ccco3)c2c1 , write its pEC50.
A. 4.12

Q. For CCOc1ccc2nc(C)cc(Nc3ccc(C)c(Cl)c3)c2c1 , write its pEC50.
A. 4.12
